The measurements presented in this section are drawn from paper PMC8113725.

systemUnderTest: C. elegans iPGM (Caenorhabditis elegans)
assayName: PGM enzyme assay (enolase–pyruvate kinase coupled, Kinase-Glo Plus end point) and IC50 determination
Assay type: biochemical
settings: IC50, metal-ion–coordinating sequence alone; iPGM ortholog not given
pIC50: −log10 of the molar value. Peptide text beside a SMILES is read from it.
quantityMeasured: pIC50

Per the record, CC(=O)N[C@@H](Cc1ccc(O)cc1)C(=O)NCC(=O)N[C@H](C(=O)N[C@@H](CS)C(N)=O)[C@@H](C)O [Ac-YGTCNH2, Ac-YGTC-CONH2] (Ac-YGTC-NH2) has pIC50 of < 3.30

* * *

systemUnderTest: B. malayi iPGM (Brugia malayi, UniProt Q4VWF8)
Sequence (Q4VWF8 whole entry): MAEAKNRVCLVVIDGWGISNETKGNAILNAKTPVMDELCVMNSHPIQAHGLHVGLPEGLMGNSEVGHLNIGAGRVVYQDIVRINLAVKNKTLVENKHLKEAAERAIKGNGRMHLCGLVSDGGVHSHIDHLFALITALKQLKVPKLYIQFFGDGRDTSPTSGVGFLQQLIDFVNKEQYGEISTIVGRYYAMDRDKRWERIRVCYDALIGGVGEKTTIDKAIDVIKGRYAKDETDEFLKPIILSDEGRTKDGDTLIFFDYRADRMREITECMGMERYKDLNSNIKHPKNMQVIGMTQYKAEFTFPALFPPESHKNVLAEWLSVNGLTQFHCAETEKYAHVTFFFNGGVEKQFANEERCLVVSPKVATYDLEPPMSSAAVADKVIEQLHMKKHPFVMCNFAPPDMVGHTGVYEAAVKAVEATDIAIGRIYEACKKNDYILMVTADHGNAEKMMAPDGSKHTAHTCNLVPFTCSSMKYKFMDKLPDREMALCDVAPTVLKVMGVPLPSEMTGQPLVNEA
assayName: biochemical
Type: binding
Bridge positions count the residues as written; N and C are the ends. Square brackets hold non-standard residues; d marks the D form. Peptide text beside a SMILES is read from it. Nva = CCC[C@H](N)C(=O)O
Consider the following compounds; for each one, report its koff.
Answers are plain numbers, in s⁻¹.

{"columns": ["compound", "systemUnderTest", "koff / s⁻¹"],
 "data": [
  ["CC(C)C[C@H](NC(=O)[C@H](Cc1ccc(O)cc1)NC(=O)[C@@H]1CSCC(=O)N[C@H](Cc2ccc(O)cc2)C(=O)N[C@@H](CC(=O)O)C(=O)N[C@@H](Cc2ccc(O)cc2)C(=O)N2CCC[C@H]2C(=O)NCC(=O)N[C@@H](CC(=O)O)C(=O)N[C@@H](Cc2ccc(O)cc2)C(=O)N1)C(=O)N[C@@H](Cc1ccc(O)cc1)C(=O)NCC(=O)N[C@@H](CO)C(=O)N[C@@H](CS)C(N)=O [Ce-2 Thr13Ser]", "B. malayi iPGM (Brugia malayi, UniProt Q4VWF8)", "7.84e-05"],
  ["CC(C)C[C@H](NC(=O)[C@H](Cc1ccc(O)cc1)NC(=O)[C@@H]1CSCC(=O)N[C@H](Cc2ccc(O)cc2)C(=O)N[C@@H](CC(=O)O)C(=O)N[C@@H](Cc2ccc(O)cc2)C(=O)N2CCC[C@H]2C(=O)NCC(=O)N[C@@H](CC(=O)O)C(=O)N[C@@H](Cc2ccc(O)cc2)C(=O)N1)C(=O)N[C@@H](Cc1ccc(O)cc1)C(=O)NCC(=O)N[C@H](C(=O)N[C@@H](CS)C(N)=O)[C@@H](C)O [Ce-2]", "B. malayi iPGM (Brugia malayi, UniProt Q4VWF8)", 0.000224],
  ["CC(C)C[C@H](NC(=O)[C@H](Cc1ccc(O)cc1)NC(=O)[C@@H]1CSCC(=O)N[C@H](Cc2ccc(O)cc2)C(=O)N[C@@H](CC(=O)O)C(=O)N[C@@H](Cc2ccc(O)cc2)C(=O)N2CCC[C@H]2C(=O)NCC(=O)N[C@@H](CC(=O)O)C(=O)N[C@@H](Cc2c[nH]cn2)C(=O)N1)C(=O)N[C@@H](Cc1ccc(O)cc1)C(=O)NCC(=O)N[C@H](C(=O)NO)[C@@H](C)O [Ce-1 NHOH]", "B. malayi iPGM (Brugia malayi, UniProt Q4VWF8)", 0.00148]
]}

Respectfully, I request koff for each entry included below.
1. CC(C)C[C@H](NC(=O)[C@H](Cc1ccc(O)cc1)NC(=O)[C@@H]1CSCC(=O)N[C@H](Cc2ccc(O)cc2)C(=O)N[C@@H](CC(=O)O)C(=O)N[C@@H](Cc2ccc(O)cc2)C(=O)N2CCC[C@H]2C(=O)NCC(=O)N[C@@H](CC(=O)O)C(=O)N[C@@H](Cc2ccc(O)cc2)C(=O)N1)C(=O)N[C@@H](Cc1ccc(O)cc1)C(=O)NCC(=O)NCC(=O)NO [Ce-2 T13G, C14NHOH]
2. CCC[C@@H]1NC(=O)[C@@H](Cc2ccc(O)cc2)NC(=O)CSC[C@@H](C(=O)N[C@@H](Cc2ccc(O)cc2)C(=O)N[C@@H](CC(C)C)C(=O)N[C@@H](Cc2ccc(O)cc2)C(=O)NCC(=O)N[C@H](C(=O)N[C@@H](CS)C(N)=O)[C@@H](C)O)NC(=O)[C@H](Cc2ccc(O)cc2)NC(=O)[C@H](CC(=O)O)NC(=O)CNC(=O)[C@@H]2CCCN2C(=O)[C@H](Cc2ccc(O)cc2)NC1=O [Ce-2 D2Nva] ({CH2CO}-[dY][Nva]YPGDYCYLYGTC-NH2; thioether N-8)

RESULT:
[0.0284, 0.000143]
